src = patent US20250034210A1

Can you tell me Kd for the items I'm about to list?
Target protein (sequence): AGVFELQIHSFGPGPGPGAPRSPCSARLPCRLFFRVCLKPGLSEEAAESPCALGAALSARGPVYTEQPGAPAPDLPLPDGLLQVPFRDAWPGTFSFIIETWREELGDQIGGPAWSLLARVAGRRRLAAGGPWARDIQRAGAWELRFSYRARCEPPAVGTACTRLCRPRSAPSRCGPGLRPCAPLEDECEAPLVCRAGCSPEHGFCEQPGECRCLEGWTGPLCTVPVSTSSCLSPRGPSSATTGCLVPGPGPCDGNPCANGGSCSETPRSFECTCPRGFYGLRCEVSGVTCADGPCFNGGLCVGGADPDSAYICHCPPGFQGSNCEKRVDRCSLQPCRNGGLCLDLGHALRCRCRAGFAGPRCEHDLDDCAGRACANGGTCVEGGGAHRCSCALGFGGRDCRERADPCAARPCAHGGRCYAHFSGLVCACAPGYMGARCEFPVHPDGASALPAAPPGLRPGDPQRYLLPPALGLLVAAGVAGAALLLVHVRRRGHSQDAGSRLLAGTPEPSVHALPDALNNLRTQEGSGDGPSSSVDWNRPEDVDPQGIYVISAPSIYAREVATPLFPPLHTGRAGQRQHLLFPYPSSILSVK
Where a SMILES comes first, the peptide text is derived from it. Bridges are numbered along the chain shown (N, C = ends). [ ]: non-standard residue; d: D form. The star is where a group is joined. ξ: configuration not given here. DOTA = O=C(O)CN1CCN(CC(=O)O)CCN(CC(=O)*)CCN(CC(=O)O)CC1; Trp(5-F) = N[C@@H](Cc1c[nH]c2ccc(F)cc12)C(=O)O; 1Nal = N[C@@H](Cc1cccc2ccccc12)C(=O)O; ξIle = CC[C@H](C)C(N)C(=O)O; Ahx = NCCCCCC(=O)O

Some solved cases for reference:
CC[C@H](C)[C@H](NC(=O)[C@@H](NC(=O)[C@H](Cc1c[nH]c2ccccc12)NC(=O)CCCCCNC(=O)CN1CCN(CC(=O)O)CCN(CC(=O)O)CCN(CC(=O)O)CC1)[C@@H](C)O)C(=O)N[C@H]1CSSC[C@@H](C(=O)N[C@@H](Cc2c[nH]c3ccccc23)C(=O)N2CCC[C@H]2C(N)=O)NC(=O)[C@H](CC(=O)O)NC(=O)[C@H](Cc2cnc[nH]2)NC(=O)[C@H](Cc2c[nH]c3ccc(F)cc23)NC(=O)[C@H](CC(N)=O)NC(=O)[C@H](CC(N)=O)NC1=O [compound 59] ({DOTA-Ahx}-WTICNN[Trp(5-F)]HDCWP-NH2; disulfide 4-10)    0.01 to 0.1 µM
CC[C@H](C)C(NC(=O)[C@@H](NC(=O)[C@H](Cc1c[nH]c2ccccc12)NC(=O)CCCCCNC(=O)CN1CCN(CC(=O)O)CCN(CC(=O)O)CCN(CC(=O)O)CC1)[C@@H](C)O)C(=O)N[C@H]1CSSC[C@@H](C(=O)N[C@@H](Cc2c[nH]c3ccccc23)C(=O)N2CCC[C@H]2C(N)=O)NC(=O)[C@H](CC(=O)O)NC(=O)[C@H](Cc2cnc[nH]2)NC(=O)[C@H](Cc2cccc3ccccc23)NC(=O)[C@H](CC(N)=O)NC(=O)[C@H](CC(N)=O)NC1=O (stereo partly shown) [compound 56] ({DOTA-Ahx}-WT[ξIle]CNN[1Nal]HDCWP-NH2; disulfide 4-10)    0.01 to 0.1 µM
CC[C@H](C)[C@H](NC(=O)[C@@H](NC(=O)[C@H](Cc1c[nH]c2ccc(F)cc12)NC(=O)CCCCCNC(=O)CN1CCN(CC(=O)O)CCN(CC(=O)O)CCN(CC(=O)O)CC1)[C@@H](C)O)C(=O)N[C@H]1CSSC[C@@H](C(=O)N[C@@H](Cc2c[nH]c3ccccc23)C(=O)N2CCC[C@H]2C(N)=O)NC(=O)[C@H](CC(=O)O)NC(=O)[C@H](Cc2cnc[nH]2)NC(=O)[C@H](Cc2c[nH]c3ccccc23)NC(=O)[C@H](CC(N)=O)NC(=O)[C@H](CC(N)=O)NC1=O [compound 58] ({DOTA-Ahx}-[Trp(5-F)]TICNNWHDCWP-NH2; disulfide 4-10)    0.001 to 0.01 µM

Now turn to the next compound.
INPUT: Look up and report measured Kd for this entry: CC[C@H](C)[C@H](NC(=O)[C@@H](NC(=O)[C@H](Cc1c[nH]c2ccccc12)NC(=O)CCCCCNC(=O)CN1CCN(CC(=O)O)CCN(CC(=O)O)CCN(CC(=O)O)CC1)[C@@H](C)O)C(=O)N[C@H]1CSSC[C@@H](C(=O)N[C@@H](Cc2c[nH]c3ccccc23)C(=O)N2CCC[C@@H]2C(N)=O)NC(=O)[C@H](CC(=O)O)NC(=O)[C@H](Cc2cnc[nH]2)NC(=O)[C@H](Cc2c[nH]c3ccccc23)NC(=O)[C@H](CC(N)=O)NC(=O)[C@H](CC(N)=O)NC1=O [compound 18] ({DOTA-Ahx}-WTICNNWHDCW[dP]-NH2; disulfide 4-10)
OUTPUT: 0.001 to 0.01 µM
